Tested on: HT-29
Experiment: Viability assay with HT-29
Type: cell-based
Conditions: HT-29, viability assay per Example 57
pEC50: −log10 of the molar value. Structures can show the parent of a compound that is named as a salt.
Parameter: pEC50

Use the examples below as a reference point.
NCCCn1cc(-c2ccc(OC(F)(F)F)cc2)c2c(CN3CCN(Cc4ccc(OC(F)(F)F)cc4)CC3)cccc21 [C186; HCl]	5.00 to 5.30
NCCCn1cc(-c2ccccc2C(N)=O)c2cc(CN3CCN(Cc4ccccc4Cl)CC3)ccc21 [C185; HCl]	5.00 to 5.30
COc1cccc(OC2CCN(Cc3ccc4c(c3)c(-c3ccc(OC(F)(F)F)cc3CN)cn4CCCN)CC2)c1 [C280; HCl]	≥ 5.30
NCCCn1cc(-c2ccc(OC(F)(F)F)cc2)c2cc(CN3CCN(Cc4cc(Cl)ccc4Cl)CC3)ccc21 [C156; HCl]	≥ 5.30
NCCCn1cc(-c2cccc(CN)c2)c2cc(CN3CCN(Cc4c(Cl)cccc4Cl)CC3)ccc21 [C168; HCl]	≥ 5.30
NCCCn1cc(-c2c(F)cccc2C(N)=O)c2cc(CN3CCN(Cc4ccccc4Cl)CC3)ccc21 [C289; HCl]	5.00 to 5.30

Continue with the next compound.
The compound listed as NCCCn1cc(-c2ccc(OC(F)(F)F)cc2CN)c2cc(CN3CCC(Cc4ccccc4Cl)CC3)ccc21 [C221; HCl] shows pEC50 equal to ≥ 5.30

* * *

Test system: HT-29
Test: Viability assay with HT-29
Type: cell-based
Details: HT-29, viability assay per Example 57
pEC50: −log10 of the molar value. Where a name gives a salt, the structure may show the parent alone.
Parameter: pEC50

Use the examples below as a reference point.
NCCCn1cc(-c2ccc(OC(F)(F)F)cc2)c2cc(S(=O)(=O)N3CCN(Cc4ccccc4Cl)CC3)ccc21	≥ 5.30
FC(F)(F)Oc1ccc(-c2cn(CC3CCNCC3)c3ccc(CN4CCN(Cc5ccccc5Cl)CC4)cc23)cc1 [C171; HCl]	≥ 5.30
FC(F)(F)Oc1ccc(-n2cc(C3CCNCC3)c3cc(CN4CCN(Cc5ccccc5Cl)CC4)ccc32)cc1 [C217; HCl]	≥ 5.30
COc1cccc(CC2CCN(Cc3ccc4c(c3)c(-c3ccc(OC(F)(F)F)cc3CN)cn4CCCN)CC2)c1 [C262; HCl]	≥ 5.30

Considering NCCCn1cc(-c2ccc(OC(F)(F)F)cc2CN)c2cc(CN3CCNC(=O)C3)ccc21 , its pEC50 with HT-29 was recorded as 5.00 to 5.30

Considering COc1ccc(-c2cn(CCCN)c3ccc(CN4CCN(Cc5ccccc5Cl)CC4)cc23)c(CNS(C)(=O)=O)c1 [C287; HCl] , its pEC50 with HT-29 was recorded as ≥ 5.30

Considering FC(F)(F)Oc1ccc(-c2cn(CCCCNc3ccccn3)c3ccc(CN4CCN(Cc5ccccc5Cl)CC4)cc23)cc1 , its pEC50 with HT-29 was recorded as 5.00 to 5.30

* * *

Test system: HT-29
Assay: Viability assay with HT-29
Format: cell-based
Details: HT-29, viability assay per Example 57
Structures can show the parent of a compound that is named as a salt.
Parameter: EC50

NCCCn1cc(-c2ccc(OC(F)(F)F)cc2)c2cc(CN3CCC(O)CC3)ccc21 [C295; HCl]	≤ 5 µM

Continue with the next compound.
The compound listed as NCCCn1cc(-c2ccc(OC(F)(F)F)cc2CN)c2cc(CN3CCS(=O)(=O)CC3)ccc21 [C288; HCl] shows EC50 equal to ≤ 5 µM
